Target Of Assay: human platelet PDE-V (Homo sapiens, UniProt O76074)
Construct: Human platelet cGMP-PDE was separated from other isozymes in human platelets; from tissue; host or cells: human platelets
Protocol Description: cGMP-Phosphodiesterase (PDE) assay, enzymatic inhibitory test
Type: biochemical
pIC50: −log10 of the molar value.
Attribute Measured: pIC50

Use these answered entries as a reference point.
[
  {
    "Item Smiles": "CC[C@H](CO)Nc1ccc([N+](=O)[O-])cc1C(=O)NCc1ccc(Cl)c([N+](=O)[O-])c1",
    "Attribute Measured": "pIC50",
    "Endpoint Value": "> 8.00"
  },
  {
    "Item Smiles": "O=C(NCc1ccc([N+](=O)[O-])cc1)c1cc([N+](=O)[O-])ccc1NC1CCCC1",
    "Attribute Measured": "pIC50",
    "Endpoint Value": "> 8.00"
  }
]

Readout pIC50 for O=C(NCc1ccc2c(c1)OCO2)c1cc([N+](=O)[O-])ccc1NC(CCl)CCl , test system human platelet PDE-V (Homo sapiens, UniProt O76074), was > 8.00

---

Kindly supply the reported melting point values for the records listed here.

Solved entries:
[
  {
    "Item Smiles": "O=C(NCc1ccc(-c2ccccc2)cc1)c1cc([N+](=O)[O-])ccc1N[C@H]1CC[C@@H](O)CC1",
    "melting point": "168 to 170 °C"
  },
  {
    "Item Smiles": "COc1ccc(CNC(=O)c2cc(C#N)ccc2N[C@@H](C)CO)cc1OC",
    "melting point": "142 to 143.5 °C"
  },
  {
    "Item Smiles": "COc1ccc(CNC(=O)c2cc(S(=O)(=O)N3CCNCC3)ccc2N[C@H]2CC[C@H](O)CC2)cc1OC",
    "melting point": "108 to 110 °C"
  },
  {
    "Item Smiles": "CC[C@@H](CO)Nc1ccc([N+](=O)[O-])cc1C(=O)NCc1ccc2c(c1)OCO2",
    "melting point": "128 to 130 °C"
  }
]

Give melting point for all compounds that follow.
1. C[C@H](CO)Nc1ccc([N+](=O)[O-])cc1C(=O)NCc1ccc2c(c1)OCO2
2. COc1ccc(CNC(=O)c2cc([N+](=O)[O-])ccc2N[C@@H](C)CO)cc1OC
3. COc1cc(CNC(=O)c2cc(S(C)(=O)=O)ccc2N[C@H]2CC[C@H](O)CC2)ccc1Cl
4. O=C(NCc1ccc(F)c(Cl)c1)c1cc([N+](=O)[O-])ccc1NC(CO)CO
5. C[C@H](CO)Nc1ccc([N+](=O)[O-])cc1C(=O)NCc1ccc(Oc2ccccc2)cc1

1. 166 to 168 °C
2. 131 to 132 °C
3. 234 to 235.5 °C
4. 235 to 238 °C
5. 127 to 129 °C

Source: patent US6384080B1
